Ref: PubChem BioAssay (EPA / NIEHS)

# target or test system: PGR (gene 5241)
# measurement notes: TOX21_PR_BLA_Followup_Antagonist_ratio: Tox21 HEK293 Progesterone Receptor (PR) Antagonism Beta-lactamase Follow-Up Assay, Ratio (AID 2283934);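 note: PR-UAS-bla HEK293T cells stimulated with 1 nM R5020 agonist for 16 hr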
The source made the active and inactive calls. Rule for the calls: active = hit-call score of the fitted dose curve at least 0.9, where 1 is the maximum; inconclusive = response in the unintended direction; inactive = score below 0.9.
Write down the outcome that applies. Available outcomes: true (1) (active), false (0) (inactive)

Ask: In this assay, the call recorded for ClC1=C(Cl)[C@]2(Cl)[C@H]3[C@H]([C@@H]4C=C[C@H]3C4)[C@@]1(Cl)C2(Cl)Cl was what?
Reply: true (1)

Ask: In this assay, the call recorded for C[C@]12C=CC3=C4CCC(=O)C=C4CC[C@H]3[C@@H]1CC[C@@H]2O was what?
Reply: false (0)

Ask: In this assay, the call recorded for O=[N+]([O-])c1ccc(Oc2ccc(Cl)cc2Cl)cc1 was what?
Reply: true (1)

Ask: In this assay, the call recorded for Clc1ccc(C(c2ccc(Cl)cc2)C(Cl)Cl)cc1 was what?
Reply: true (1)

---

# target or test system: Hypoxia-inducible factor 1-alpha (Homo sapiens) (UniProt Q16665)
# Sequence (Q16665 whole entry, looked up): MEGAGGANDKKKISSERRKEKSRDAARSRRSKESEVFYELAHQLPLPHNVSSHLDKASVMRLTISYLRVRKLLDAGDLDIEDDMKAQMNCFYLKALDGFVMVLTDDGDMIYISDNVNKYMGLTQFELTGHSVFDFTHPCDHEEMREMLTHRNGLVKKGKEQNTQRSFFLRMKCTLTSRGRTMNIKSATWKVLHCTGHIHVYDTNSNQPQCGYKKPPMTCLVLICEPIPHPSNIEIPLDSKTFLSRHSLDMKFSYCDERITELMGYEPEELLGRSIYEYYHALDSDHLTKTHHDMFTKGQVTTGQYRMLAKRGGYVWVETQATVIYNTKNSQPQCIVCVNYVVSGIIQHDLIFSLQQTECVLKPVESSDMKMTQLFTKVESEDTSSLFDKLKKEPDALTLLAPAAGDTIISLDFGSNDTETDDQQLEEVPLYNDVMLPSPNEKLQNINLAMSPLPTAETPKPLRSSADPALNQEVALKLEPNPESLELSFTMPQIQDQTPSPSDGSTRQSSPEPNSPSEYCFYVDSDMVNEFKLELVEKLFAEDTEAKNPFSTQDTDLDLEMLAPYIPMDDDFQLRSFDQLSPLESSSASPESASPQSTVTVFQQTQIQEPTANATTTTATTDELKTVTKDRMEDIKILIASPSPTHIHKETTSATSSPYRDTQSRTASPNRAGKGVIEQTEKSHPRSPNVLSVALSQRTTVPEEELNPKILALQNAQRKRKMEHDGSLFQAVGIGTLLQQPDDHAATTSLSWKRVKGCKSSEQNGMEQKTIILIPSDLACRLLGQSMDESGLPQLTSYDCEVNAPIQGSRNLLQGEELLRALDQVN
# measurement notes: ATG_HIF1a_CIS: Attagene CIS-FACTORIAL HepG2 Assay for human Hypoxia Inducible Factor 1 (HIF1A) (AID 2282951)
# condition context: HepG2 Attagene cis-factorial HIF1a reporter transcription; actives raise or lower the signal
Activity calls are given as the source filed them. How the source made its calls: active means hit-call score of the fitted dose curve at least 0.9, where 1 is the maximum; inactive means score below 0.9.
Write down the outcome that applies. Available outcomes: Y = active, N = inactive

Brc1ccc(Oc2ccccc2)cc1 ... N
COC(=O)Nc1nc2ccccc2[nH]1 ... N
CCN(CC)N=O ... N

Ask: In this assay, the call recorded for COc1cc(C=O)cc2c1[C@H](COC(N)=O)[C@]1(OC(C)=O)ON2C[C@H]2[C@@H]1N2C(C)=O was what?
Reply: Y

Ask: In this assay, the call recorded for OCCCl was what?
Reply: N

Ask: In this assay, the call recorded for Oc1ccc2ccc3cccc4ccc1c2c34 was what?
Reply: Y

Ask: In this assay, the call recorded for ClC1=C(Cl)[C@]2(Cl)[C@H]3[C@H]([C@@H]4C=C[C@H]3C4)[C@@]1(Cl)C2(Cl)Cl was what?
Reply: N

Ask: In this assay, the call recorded for CCCCCCCCn1sccc1=O was what?
Reply: N

Ask: In this assay, the call recorded for Clc1ccc(C(c2ccc(Cl)cc2)C(Cl)Cl)cc1 was what?
Reply: N

Ask: In this assay, the call recorded for CCOC(=O)[C@]1(c2ccccc2)Oc2ccccc2[C@@H]1N was what?
Reply: Y

Ask: In this assay, the call recorded for COP(=S)(OC)SCN1C(=O)c2ccccc2C1=O was what?
Reply: N

Ask: In this assay, the call recorded for CCC[CH2][Sn]([Cl])([CH2]CCC)[CH2]CCC was what?
Reply: N

Ask: In this assay, the call recorded for O=C(N[C@H](c1ccccc1)[C@@H]1CN2CCC1CC2)c1c(Cl)ccc(C(F)(F)F)c1Cl was what?
Reply: Y

Ask: In this assay, the call recorded for CCC(C)c1ccc(O)cc1 (stereo not drawn) was what?
Reply: N

Ask: In this assay, the call recorded for CC(C)(C)OOC(C)(C)CCC(C)(C)OOC(C)(C)C was what?
Reply: N

Ask: In this assay, the call recorded for Clc1ccc(C(c2ccc(Cl)cc2)C(Cl)(Cl)Cl)cc1 was what?
Reply: N

Ask: In this assay, the call recorded for Nc1ccc(Oc2ccc(N)cc2)cc1 was what?
Reply: N

Ask: In this assay, the call recorded for c1ccc(NNc2ccccc2)cc1 was what?
Reply: N

Ask: In this assay, the call recorded for ClCCOCCCl was what?
Reply: N

Ask: In this assay, the call recorded for COC(=O)c1ccccc1N was what?
Reply: N

Ask: In this assay, the call recorded for c1ccc(C2CO2)cc1 (stereo not drawn) was what?
Reply: N
